Every entry's value here was drawn from ChEMBL document CHEMBL1152245.

Molecular target: Muscarinic acetylcholine receptor M3 (Homo sapiens)
Sequence (P20309 whole entry, looked up): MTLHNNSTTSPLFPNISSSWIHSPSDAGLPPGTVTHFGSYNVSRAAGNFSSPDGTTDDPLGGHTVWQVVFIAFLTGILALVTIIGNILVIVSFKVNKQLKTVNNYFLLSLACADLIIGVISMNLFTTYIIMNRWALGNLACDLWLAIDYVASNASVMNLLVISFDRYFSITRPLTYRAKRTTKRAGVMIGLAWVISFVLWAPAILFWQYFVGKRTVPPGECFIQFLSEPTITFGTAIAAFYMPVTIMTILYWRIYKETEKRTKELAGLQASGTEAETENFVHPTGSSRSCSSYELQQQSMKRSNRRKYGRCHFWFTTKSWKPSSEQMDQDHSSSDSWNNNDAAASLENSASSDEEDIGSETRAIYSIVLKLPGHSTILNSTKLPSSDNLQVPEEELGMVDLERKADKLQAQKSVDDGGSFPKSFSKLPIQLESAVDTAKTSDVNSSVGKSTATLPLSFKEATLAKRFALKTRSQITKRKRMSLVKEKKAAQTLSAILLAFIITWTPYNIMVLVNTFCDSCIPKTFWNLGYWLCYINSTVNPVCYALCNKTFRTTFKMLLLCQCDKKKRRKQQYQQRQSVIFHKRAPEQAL
Assay: Agonist activity at muscarinic M3 receptor at up to 30 uM
Type: functional
Active and inactive are the calls of the source. The rule behind the calls is not given here.
endpointLabel: Activity

In [3]: df
Out[3]:
                            smilesstructure                                testtarget  endpointlabel  endpointresult
0  O=C(c1ccccc1C(F)(F)F)N1CCC(N2CCC(n3c(=O)[nH]c4ccccc43)CC2)CC1  Muscarinic acetylcholine receptor M3 (Homo sapiens)       Activity        inactive
1  O=C(c1ccccc1C(F)(F)F)N1CCC(N2CCC(n3c(=O)[nH]c4cc(Cl)ccc43)CC2)CC1  Muscarinic acetylcholine receptor M3 (Homo sapiens)       Activity        inactive
2  Cc1ccccc1C(=O)N1CCC(N2CCC(n3c(=O)[nH]c4ccccc43)CC2)CC1  Muscarinic acetylcholine receptor M3 (Homo sapiens)       Activity        inactive

----------
# Activity per entry
Molecular target: Muscarinic acetylcholine receptor M1 (Homo sapiens)
Sequence (whole entry): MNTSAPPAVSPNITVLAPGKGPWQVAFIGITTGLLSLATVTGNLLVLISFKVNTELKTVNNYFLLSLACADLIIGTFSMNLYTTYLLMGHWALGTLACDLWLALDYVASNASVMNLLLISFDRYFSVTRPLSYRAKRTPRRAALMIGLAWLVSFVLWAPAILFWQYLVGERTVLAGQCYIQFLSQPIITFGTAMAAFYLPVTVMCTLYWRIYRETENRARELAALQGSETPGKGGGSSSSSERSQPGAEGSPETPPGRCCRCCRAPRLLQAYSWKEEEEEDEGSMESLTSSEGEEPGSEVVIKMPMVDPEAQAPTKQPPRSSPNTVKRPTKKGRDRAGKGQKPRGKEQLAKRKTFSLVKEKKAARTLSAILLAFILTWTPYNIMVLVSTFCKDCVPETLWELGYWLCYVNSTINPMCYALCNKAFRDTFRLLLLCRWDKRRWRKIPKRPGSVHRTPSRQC
Assay: Agonist activity at muscarinic M1 receptor relative to carbachol
Assay type: functional
endpointLabel: Activity (%)

>>> print(df.to_string())
                            smilesstructure  endpointlabel  endpointresult
0  O=C(Nc1cccc(SC(F)(F)F)c1)N1CCC(N2CCC(n3c(=O)[nH]c4ccc(F)cc43)CC2)CC1       Activity              72
1  O=C(Nc1cccc(SC(F)(F)F)c1)N1CCC(N2CCC(n3c(=O)[nH]c4c(F)cccc43)CC2)CC1       Activity              46
2  O=c1[nH]c2cc(Cl)ccc2n1C1CCN(C2CCN(S(=O)(=O)c3ccccc3)CC2)CC1       Activity              82
3  Cc1cccc(C(=O)N2CCC(N3CCC(n4c(=O)[nH]c5ccccc54)CC3)CC2)c1       Activity              53
4  O=C(c1cccc(Cl)c1)N1CCC(N2CCC(n3c(=O)[nH]c4cc(Cl)ccc43)CC2)CC1       Activity              21
5  O=c1[nH]c2ccccc2n1C1CCN(C2CCN(Cc3ccccc3C(F)(F)F)CC2)CC1       Activity              80
6  Cc1ccccc1C(=O)N1CCC(N2CCC(n3c(=O)[nH]c4ccccc43)CC2)CC1       Activity              60
7  O=c1[nH]c2ccccc2n1C1CCN(C2CCN(S(=O)(=O)c3ccccc3)CC2)CC1       Activity              82
8  Cc1ccccc1C(=O)N1CCC(N2CCC(n3c(=O)[nH]c4cc(Cl)ccc43)CC2)CC1       Activity              56
9  O=c1[nH]c2cc(F)ccc2n1C1CCN(C2CCN(S(=O)(=O)c3ccccc3)CC2)CC1       Activity              82

----------
Molecular target: D(2) dopamine receptor (Homo sapiens, UniProt P14416)
Sequence (P14416 whole entry): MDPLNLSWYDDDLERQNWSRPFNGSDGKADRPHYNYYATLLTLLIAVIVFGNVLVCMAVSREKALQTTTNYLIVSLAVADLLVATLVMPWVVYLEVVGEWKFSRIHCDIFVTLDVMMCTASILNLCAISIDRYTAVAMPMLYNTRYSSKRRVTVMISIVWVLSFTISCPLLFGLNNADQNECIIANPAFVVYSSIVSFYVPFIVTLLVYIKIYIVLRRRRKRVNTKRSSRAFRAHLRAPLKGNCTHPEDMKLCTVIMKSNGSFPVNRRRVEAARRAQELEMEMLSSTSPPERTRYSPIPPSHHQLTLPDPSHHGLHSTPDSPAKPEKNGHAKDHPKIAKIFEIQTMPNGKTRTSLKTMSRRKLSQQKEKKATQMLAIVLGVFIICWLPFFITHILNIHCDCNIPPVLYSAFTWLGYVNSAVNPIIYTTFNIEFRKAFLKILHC
Test: Antagonist activity at dopamine D2 receptor
pIC50: −log10 of the molar value.
endpointLabel: pIC50

>>> df
                            smilesstructure                                testtarget  resultmodifier  endpointresult
0  O=c1[nH]c2cc(F)ccc2n1C1CCN(C2CCN(S(=O)(=O)c3ccccc3)CC2)CC1  D(2) dopamine receptor (Homo sapiens, UniProt P14416)               =            5.44
1  Cc1ccccc1CN1CCC(N2CCC(n3c(=O)[nH]c4ccccc43)CC2)CC1  D(2) dopamine receptor (Homo sapiens, UniProt P14416)               =            5.29
2  O=c1[nH]c2ccc(F)cc2n1C1CCN(C2CCN(S(=O)(=O)c3ccccc3)CC2)CC1  D(2) dopamine receptor (Homo sapiens, UniProt P14416)               <            5.00
